Each item that follows carries a reported Kd.
MEASUREMENT TARGET: T1, EsCas13d, nuclease-dead (Eubacterium siraeum, UniProt B0MS50, R295A;H300A;R849A;H854A)
T1 sequence: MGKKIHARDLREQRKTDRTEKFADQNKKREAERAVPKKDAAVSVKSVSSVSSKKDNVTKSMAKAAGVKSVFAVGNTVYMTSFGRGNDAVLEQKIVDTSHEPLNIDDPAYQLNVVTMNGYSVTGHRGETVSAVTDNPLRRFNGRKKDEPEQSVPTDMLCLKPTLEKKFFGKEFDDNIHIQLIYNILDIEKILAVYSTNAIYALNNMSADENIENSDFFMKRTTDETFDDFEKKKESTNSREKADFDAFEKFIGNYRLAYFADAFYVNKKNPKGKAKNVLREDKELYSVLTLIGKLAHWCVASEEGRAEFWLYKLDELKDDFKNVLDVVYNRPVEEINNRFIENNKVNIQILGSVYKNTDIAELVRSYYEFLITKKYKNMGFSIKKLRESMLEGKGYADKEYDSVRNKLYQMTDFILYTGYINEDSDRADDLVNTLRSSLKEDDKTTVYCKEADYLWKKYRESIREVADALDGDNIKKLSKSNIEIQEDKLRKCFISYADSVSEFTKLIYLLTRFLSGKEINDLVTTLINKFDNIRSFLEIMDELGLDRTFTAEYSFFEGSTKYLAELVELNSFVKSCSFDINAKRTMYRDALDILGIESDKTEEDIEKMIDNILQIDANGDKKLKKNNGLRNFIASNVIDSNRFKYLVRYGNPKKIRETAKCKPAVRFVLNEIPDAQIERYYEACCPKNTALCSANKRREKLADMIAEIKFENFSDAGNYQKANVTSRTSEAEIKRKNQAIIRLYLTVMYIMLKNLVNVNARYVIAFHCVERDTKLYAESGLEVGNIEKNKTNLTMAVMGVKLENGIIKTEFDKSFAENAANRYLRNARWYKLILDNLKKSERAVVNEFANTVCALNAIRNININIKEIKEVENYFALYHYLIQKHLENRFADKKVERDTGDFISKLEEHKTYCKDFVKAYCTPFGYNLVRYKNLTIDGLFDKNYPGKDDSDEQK
PROTOCOL NOTES: crRNA (strand 1, pre-loaded); Mg2+; 40 mM Tris-HCl pH 7.5, 150 mM NaCl, 6 mM MgCl2, 1 mM DTT, 0.1% Tween-20, 0.2 mg/ml BSA; 25 C; 10 min per concentration, then washed
DETAILS: tags: His6-TwinStrep-SUMO cleaved; N-terminal SNAP kept (SNAP-Surface 488); label: 3' end held by stalled T7 RNA polymerase
Express your answer in nM, writing the number without its unit.

target 1 insA 3' of 22,insG 3' of 1 (mixed) RNA 1: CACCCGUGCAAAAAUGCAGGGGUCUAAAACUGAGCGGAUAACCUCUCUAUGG RNA 2: GGGAAUGGAUCCACAUCUACGAAUUCGUACACAUAGAGAGGUUAUCCGCUCAGCCGAGAUCGGAAGAGCACACGU
11.2
target 1 MT 5'PFS GUC 3'PFS AGC (mixed) RNA 1: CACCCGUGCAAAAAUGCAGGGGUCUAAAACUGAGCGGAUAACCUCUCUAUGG RNA 2: GGGAAUGGAUCCACAUCUACGAAUUCGUCCCAUAGAGAGGUUAUCCGCUCAAGCAGAUCGGAAGAGCACACGU
9.1
target 3 U2G,A13U (mixed) RNA 1: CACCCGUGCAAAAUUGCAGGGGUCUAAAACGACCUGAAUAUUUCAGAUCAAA RNA 2: GGGAAUGGAUCCACAUCUACGAAUUCGUUUUUGAUCUGUAAUAUUCAGGGCUGCAGAUCGGAAGAGCACACGU
46.5

According to the records, this binder target 2 MT 5'PFS ACU 3'PFS UUC (mixed) RNA 1: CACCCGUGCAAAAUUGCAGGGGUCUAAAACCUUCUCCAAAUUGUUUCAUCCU RNA 2: GGGAAUGGAUCCACAUCUACGAAUUCACUAGGAUGAAACAAUUUGGAGAAGUUCAGAUCGGAAGAGCACACGU displays Kd of 7.1
